- System: INS-1E rat beta cells, no cytokines, CellTiter-Glo ATP, 48 h
- Procedure Text: cytokine-free beta-cell viability effect – INS-1E rat cells, ATP luminescence, cherry pick, counter-screen for beta-cell apoptosis protection project, dose response (AID 463229)
Consider the following compounds; for each one, report its AC50.

Here's what some known entries look like.
CN(C)c1ccc(-c2cc(O)c3ncccc3c2)cc1    26.9 µM
CCN(CC)S(=O)(=O)c1cc(OC)ccc1N=Nc1ccc(O)c2ncccc12    4.04 µM
CSc1nc(N)nc2c1ncn2CC(=O)N1CCN(Cc2c(C)cc(C)cc2C)CC1    2.65 µM

Answer for every listed entry: what is its AC50? The entries follow.
1. Cc1ccc(/C=N/NC(=O)c2c(-c3ccccc3)noc2C)c(O)c1
2. O=C(c1ccco1)N1N=C(c2ccc(Br)cc2)CC1c1ccco1 (centres undefined)
3. O=C(Nc1cccnc1)c1cccnc1
4. O=C(NNc1c(Cl)cc(Cl)cc1Cl)c1cccc([N+](=O)[O-])c1
5. COc1ccc(C(NC(C)=O)c2ccc3cccnc3c2O)c(OC)c1 (centres undefined)
6. O=[N+]([O-])c1cc(CN2CCN(c3ccccc3)CC2)c(O)c2ncccc12

7.91 µM
24.2 µM
10.9 µM
3.08 µM
4.24 µM
3.1 µM
